- Test summary: FLuc inhibitory activity for the follow-up compounds in a cell-based assay to assess the activity of miR-21
- Experimental parameters: HeLa miR-21-FLuc reporter, luciferase luminescence, 48 h; series mostly up to 38.3 µM
Inconclusive results are not listed. Calls of active or inactive are those of the source. The call rests on the fitted dose curve; in most records, active means well fitted activation curve with a large enough effect; inconclusive means small, poorly fitted or top-dose-only effect; inactive means no such curve, though single readings can be large or run the other way.
Your answer must be one of the following: 1 for active, -1 for inactive

Prompt: What call does the record list for O=C(Nc1ccccc1C(=O)O)c1ccc(Cl)c(S(=O)(=O)N2CCOCC2)c1 ?
Response: 1

Prompt: What call does the record list for O=C(Cc1ccccc1)Nc1ccc(C(=O)Nc2ccccc2C(=O)O)cc1 ?
Response: -1

Prompt: What call does the record list for COc1ccc2nc(NC(=O)c3nc(S(=O)(=O)Cc4ccc(C)cc4)ncc3Cl)sc2c1 ?
Response: 1

Prompt: What call does the record list for Cc1ccc(C(=O)Nc2ccc(C(=O)O)cc2)cc1S(=O)(=O)Nc1ccccc1 ?
Response: -1

Prompt: What call does the record list for COc1ccc(Br)cc1C(=O)Nc1ccc(C(=O)O)cc1 ?
Response: 1

Prompt: What call does the record list for O=C(O)c1ccc(NC(=O)c2cccc(C(=O)Nc3ccc(C(=O)O)cc3)c2)cc1 ?
Response: -1

Prompt: What call does the record list for COc1ccc2nc(NC(=O)Cc3cccs3)sc2c1 ?
Response: 1

Prompt: What call does the record list for COc1ccc(CC(=O)Nc2cccc(C(=O)Nc3ccccc3C(=O)O)c2)cc1OC ?
Response: 1

----------
- Test summary: FLuc inhibitory activity for the follow-up compounds in a cell-based assay to assess the activity of miR-21
- Experimental parameters: HeLa miR-21-FLuc reporter, luciferase luminescence, 48 h; series mostly up to 38.3 µM
Records with an inconclusive call do not appear. Calls of active or inactive are those of the source. Calls come from the whole dose curve; as a rule, active = well fitted activation curve with a large enough effect; inconclusive = small, poorly fitted or top-dose-only effect; inactive = no such curve, though single readings can be large or run the other way.
Your answer must be one of the following: t = active, f = inactive

Prompt: What call does the record list for O=C(Nc1ccccc1C(=O)O)c1cc(S(=O)(=O)Nc2cccc(F)c2)ccc1Cl ?
Response: f

Prompt: What call does the record list for O=C(O)c1cccc(NC(=O)c2cccc(S(=O)(=O)N3CCCCC3)c2)c1 ?
Response: t

Prompt: What call does the record list for O=C(Nc1cccc(-c2nc3ccccc3s2)c1)c1cc(-n2cnnc2)ccc1Cl ?
Response: t

Prompt: What call does the record list for Cc1ccc(C(=O)Nc2cccc(C(=O)O)c2)cc1 ?
Response: t

Prompt: What call does the record list for COc1ccc(-c2cccc(C(=O)Nc3cccc(C(=O)O)c3)c2)cc1 ?
Response: t

Prompt: What call does the record list for Cc1ccc(C(=O)Nc2ccc(C(=O)O)cc2)cc1S(=O)(=O)NCc1ccccc1 ?
Response: f

Prompt: What call does the record list for Cc1ccc(C(=O)O/N=C(\N)c2ccccn2)cc1 ?
Response: t

Prompt: What call does the record list for COc1ccc(-c2nc3ccccc3s2)cc1NC(=O)c1ccc(F)cc1 ?
Response: t

Prompt: What call does the record list for CCOc1ccc(C(=O)Nc2ccccc2C(=O)O)cc1 ?
Response: t

Prompt: What call does the record list for CCOc1c(Cl)cc(C(=O)Nc2ccccc2C(=O)O)cc1Cl ?
Response: t

Prompt: What call does the record list for CN=c1scc(-c2ccccc2F)n1/N=C/c1ccc[nH]1 ?
Response: f

Prompt: What call does the record list for COc1ccc2nc(NC(=O)CCc3nc(-c4ccccc4F)no3)sc2c1 ?
Response: t

Prompt: What call does the record list for COc1ccc(C(=O)Nc2ccccc2C(=O)Nc2ccccc2C(=O)O)cc1 ?
Response: t

Prompt: What call does the record list for COc1ccc(NS(=O)(=O)c2cccc(C(=O)Nc3ccccc3C(=O)O)c2)cc1 ?
Response: f

Prompt: What call does the record list for O=C(Nc1ccccc1-c1nc2ccccc2s1)c1ccc(Br)o1 ?
Response: t

Prompt: What call does the record list for CN(C)S(=O)(=O)c1ccc(C(=O)Nc2cccc(C(=O)O)c2)cc1 ?
Response: f

Prompt: What call does the record list for O=C(O)c1cccc(NC(=O)c2ccc(COc3ccc(Cl)cc3)cc2)c1 ?
Response: t

Prompt: What call does the record list for CC(C)c1ccc(C(=O)Nc2ccc(-c3nc4ccccc4s3)c(Cl)c2)cc1 ?
Response: t

Prompt: What call does the record list for Cc1ccc2sc(-c3ccc(NC(=O)c4cc(-n5cnnc5)ccc4Cl)cc3)nc2c1 ?
Response: t

Prompt: What call does the record list for COc1ccc2nc(NC(=O)c3ccco3)sc2c1 ?
Response: t

Prompt: What call does the record list for COc1cccc(OC)c1C(=O)Nc1cccc(C(=O)Nc2cccc(C(=O)O)c2)c1 ?
Response: f

Prompt: What call does the record list for CCOc1ccc(C(=O)Nc2cccc(C(=O)O)c2)cc1Cl ?
Response: t

Prompt: What call does the record list for O=C(Nc1ccc(-c2nc3ccccc3s2)cc1)C1=COCCO1 ?
Response: t

Prompt: What call does the record list for Cc1ccc(C(=O)Nc2cccc(C(=O)O)c2)cc1S(=O)(=O)N1CCCC1 ?
Response: t

Prompt: What call does the record list for COc1ccc(-c2nc3ccccc3s2)cc1O ?
Response: t

Prompt: What call does the record list for COc1ccc(CC(=O)Nc2ccc(-c3nc4ccccc4s3)c(C)c2)cc1 ?
Response: t

Prompt: What call does the record list for COc1c(C)cccc1C(=O)Nc1ccc(-c2nc3ccccc3s2)c(Cl)c1 ?
Response: t

Prompt: What call does the record list for COc1ccc2nc(NC(=O)c3ccc4ncsc4c3)sc2c1 ?
Response: t

Prompt: What call does the record list for CC(C)Oc1ccc(C(=O)Nc2ccc(-c3nc4ccccc4s3)cc2)cc1 ?
Response: t

Prompt: What call does the record list for COc1ccc2nc(NC(=O)CCc3ccc(OC)c(OC)c3)sc2c1 ?
Response: t

Prompt: What call does the record list for O=C(Nc1ccccc1C(=O)O)c1ccc(NC(=O)C2CCCCC2)cc1 ?
Response: f

Prompt: What call does the record list for Cc1ccc(C(=O)O/N=C(\N)c2ccccn2)c(Cl)c1 ?
Response: t

Prompt: What call does the record list for COc1ccc2nc(NC(=O)c3ccc([N+](=O)[O-])o3)sc2c1 ?
Response: t

Prompt: What call does the record list for O=C(Nc1ccccc1C(=O)O)c1cccc(S(=O)(=O)Nc2ccc(Br)cc2)c1 ?
Response: f

Prompt: What call does the record list for Nc1cccc(-c2nc3ccc(N)cc3s2)c1 ?
Response: t

Prompt: What call does the record list for CC(C)CC(=O)Nc1cccc(C(=O)Nc2ccccc2C(=O)O)c1 ?
Response: f

Prompt: What call does the record list for Oc1ccc(-c2nc3ccccc3s2)c(O)c1 ?
Response: t

Prompt: What call does the record list for O=C(O)c1cccc(NC(=O)c2cccc(S(=O)(=O)N3CCc4ccccc4C3)c2)c1 ?
Response: f

Prompt: What call does the record list for O=C(Nc1ccccc1C(=O)O)c1ccc(NC(=O)C2CC2)cc1 ?
Response: f

Prompt: What call does the record list for CC(=O)Oc1ccc(C(=O)Nc2ccccc2C(=O)Nc2cccc(C(=O)O)c2)cc1 ?
Response: f

Prompt: What call does the record list for c1ccc2sc(-c3ccc4c(c3)OCO4)nc2c1 ?
Response: t

Prompt: What call does the record list for Cn1c(N/N=C/c2cc3ccccc3nc2Cl)nc2ccccc21 ?
Response: t

Prompt: What call does the record list for O=C(Nc1ccccc1C(=O)O)c1cccc(C(=O)Nc2ccccc2C(=O)O)c1 ?
Response: f

Prompt: What call does the record list for CC(C)(C)C(=O)Nc1ccc(-c2nc3ccccc3s2)cc1 ?
Response: f

Prompt: What call does the record list for CCn1c(C)nc2cc(-c3nc4n(n3)Cc3ccccc3-4)ccc21 ?
Response: t

----------
- Test summary: FLuc inhibitory activity for the follow-up compounds in a cell-based assay to assess the activity of miR-21
- Experimental parameters: HeLa miR-21-FLuc reporter, luciferase luminescence, 48 h; series mostly up to 38.3 µM
Records with an inconclusive call do not appear. Calls of active or inactive are those of the source. Calls come from the whole dose curve; as a rule, active = well fitted activation curve with a large enough effect; inconclusive = small, poorly fitted or top-dose-only effect; inactive = no such curve, though single readings can be large or run the other way.
Your answer must be one of the following: active, inactive

Prompt: What call does the record list for COc1cccc(-c2nc3ccccc3s2)c1 ?
Response: active

Prompt: What call does the record list for Cc1ccc2nc(-c3ccc(N)cc3)sc2c1 ?
Response: active

Prompt: What call does the record list for Nc1ccccc1-c1nc2ccccc2s1 ?
Response: active

Prompt: What call does the record list for CC(C)C(=O)Nc1cccc(C(=O)Nc2ccccc2C(=O)O)c1 ?
Response: inactive

Prompt: What call does the record list for O=C(O)c1cccc(NC(=O)c2ccc(Cl)c(S(=O)(=O)N3CCCCCC3)c2)c1 ?
Response: active

Prompt: What call does the record list for O=C(Nc1ccccc1C(=O)O)c1cc(S(=O)(=O)Nc2ccccc2)ccc1Cl ?
Response: inactive

Prompt: What call does the record list for O=C(Nc1ccccc1C(=O)O)c1cccc(NC(=O)c2ccccc2Br)c1 ?
Response: inactive

Prompt: What call does the record list for CC(=O)Oc1ccc(C(=O)Nc2ccccc2C(=O)Nc2ccc(C(=O)O)cc2)cc1 ?
Response: inactive

Prompt: What call does the record list for O=C(Nc1cccc(-c2nc3ccccc3s2)c1)C1=COCCO1 ?
Response: active

Prompt: What call does the record list for COc1ccc2nc(NC(=O)c3cccc(S(=O)(=O)N4CCOCC4)c3)sc2c1 ?
Response: active

Prompt: What call does the record list for CCOc1ccc2nc(NC(=O)c3ccccn3)sc2c1 ?
Response: active

Prompt: What call does the record list for COc1cc(OC)cc(C(=O)Nc2ccc(-c3nc4ccccc4s3)c(C)c2)c1 ?
Response: active

Prompt: What call does the record list for C/C(=N\NC(=O)c1ccccc1NC(=O)c1ccc(Cl)cc1)c1ccncc1 ?
Response: active

Prompt: What call does the record list for O=C(Nc1ccccc1C(=O)O)c1ccccc1 ?
Response: active

Prompt: What call does the record list for O=C(Nc1ccccc1C(=O)O)c1cc(S(=O)(=O)NCc2ccccc2)ccc1Cl ?
Response: inactive

Prompt: What call does the record list for CCOc1ccc2nc(NC(=O)c3ccccc3)sc2c1 ?
Response: active

Prompt: What call does the record list for O=C(O)c1ccc(NC(=O)c2cc(S(=O)(=O)N3CCCCC3)c(Cl)cc2Cl)cc1 ?
Response: inactive

Prompt: What call does the record list for COc1ccc2nc(NC(=O)c3ccc(NS(=O)(=O)c4cccs4)cc3)sc2c1 ?
Response: active

Prompt: What call does the record list for COc1ccc(C(=O)Nc2nc3ccc(OC)cc3s2)cc1 ?
Response: active

Prompt: What call does the record list for CN(C)c1cccc(C(=O)Nc2ccc(-c3nc4ccccc4s3)cc2)c1 ?
Response: active

Prompt: What call does the record list for Cc1ccc2sc(-c3ccc(N)cc3)nc2c1 ?
Response: active

Prompt: What call does the record list for Cc1c(NC(=O)C(C)(C)C)cccc1-c1nc2ccccc2s1 ?
Response: active

Prompt: What call does the record list for COc1ccc(C(=O)Nc2ccccc2C(=O)Nc2ccc(C(=O)O)cc2)cc1 ?
Response: active
